Below, each entry is listed with its recorded optical density.
target: T1, Goat anti-Human Kappa; experiment: ELISA, positive control; note: test concentration or dose not given here
T1 construct: Positive control of the ELISA; also called biotinylated goat anti-human kappa light chain

binder	optical density
370_E06 (antibody, V domains shown) VH: EVQLLESGGGLVQPGGSLRLSCAASGFTFSSYGMNWVRQAPGKGLEWVSGINYNSGYKSYADSVKGRFTISRDNSKNTLYLQMNSLRAEDTAVYYCARSANWHDTALDYWGQGTLVTVSS VL: DIQMTQSPSSLSASVGDRVTITCRASQSILSYLNWYQQKPGKAPKLVIYATTSLASGVPSRFSGSGSGTDFTLTISSLQPEDFATYYCQQSYDTPLTFGGGTKVEIK	3.61 OD
371_G10 (antibody, V domains shown) VH: EVQLLESGGGLVQPGGSLRLSCAASGFTFSSYSMNWVRQAPGKGLEWVSGINYNGGYKSYADSVKGRFTISRDNSKNTLYLQMNSLRAEDTAVYYCARSANWHDTALDYWGQGTLVTVSS VL: DIQMTQSPSSLSASVGDRVTITCRASQSISSYVNWYQQKPGKAPKLLIYAATSRHSGVPSRFSGSGSGTDFTLTISSLQPEDFATYYCQQSDDSPLTFGGGTKVEIK	3.41 OD
373_G10 (antibody, V domains shown) VH: EVQLLESGGGLVQPGGSLRLSCAASGFTFSDYGMNWVRQAPGKGLEWVSNINYNGGYKSYADSVKGRFTISRDNSKNTLYLQMNSLRAEDTAVYYCARSANWHDTALDYWGQGTLVTVSS VL: DIQMTQSPSSLSASVGDRVTITCRASQSIVSYVNWYQQKPGKAPKLLIYAATSRASGVPSRFSGSGSGTDFTLTISSLQPEDFATYYCQQSYDLPLTFGGGTKVEIK	3.26 OD
